All values here come from the supplement of paper PMC9112550.

test system: Escherichia coli TOP10; experiment: shrunken log2 fold change of peptide-encoding DNA abundance (4.5 h post-induction vs induction); higher = less antimicrobial activity (less host growth inhibition); details: time post-induction: 4.5 h; library: site-saturation at positions 5, 18, 19, 20
Cut-off -0.009 on shrunken log2 fold change, inclusive. At or above means y; below means n.

INPUT: Textbook exercise: given the entry `RRIRGRPPRLPRPRPRPEIEPRP` , state whether its shrunken log2 fold change is greater than or equal to -0.009.
OUTPUT: y

INPUT: Textbook exercise: given the entry `RRIRDRPPRLPRPRPRPANLPRP` , state whether its shrunken log2 fold change is greater than or equal to -0.009.
OUTPUT: n

INPUT: Textbook exercise: given the entry `RRIRGRPPRLPRPRPRPQIAPRP` , state whether its shrunken log2 fold change is greater than or equal to -0.009.
OUTPUT: y

INPUT: Textbook exercise: given the entry `RRIRVRPPRLPRPRPRPWLDPRP` , state whether its shrunken log2 fold change is greater than or equal to -0.009.
OUTPUT: y

INPUT: Textbook exercise: given the entry `RRIRWRPPRLPRPRPRPIQNPRP` , state whether its shrunken log2 fold change is greater than or equal to -0.009.
OUTPUT: n

INPUT: Textbook exercise: given the entry `RRIRNRPPRLPRPRPRPSRIPRP` , state whether its shrunken log2 fold change is greater than or equal to -0.009.
OUTPUT: n

INPUT: Textbook exercise: given the entry `RRIRNRPPRLPRPRPRPFYSPRP` , state whether its shrunken log2 fold change is greater than or equal to -0.009.
OUTPUT: y

INPUT: Textbook exercise: given the entry `RRIRRRPPRLPRPRPRPGRKPRP` , state whether its shrunken log2 fold change is greater than or equal to -0.009.
OUTPUT: y

INPUT: Textbook exercise: given the entry `RRIRTRPPRLPRPRPRPRLAPRP` , state whether its shrunken log2 fold change is greater than or equal to -0.009.
OUTPUT: y

INPUT: Textbook exercise: given the entry `RRIRTRPPRLPRPRPRPLPWPRP` , state whether its shrunken log2 fold change is greater than or equal to -0.009.
OUTPUT: y

INPUT: Textbook exercise: given the entry `RRIRWRPPRLPRPRPRPLMIPRP` , state whether its shrunken log2 fold change is greater than or equal to -0.009.
OUTPUT: n

INPUT: Textbook exercise: given the entry `RRIRNRPPRLPRPRPRPPVGPRP` , state whether its shrunken log2 fold change is greater than or equal to -0.009.
OUTPUT: y

INPUT: Textbook exercise: given the entry `RRIRPRPPRLPRPRPRPLYKPRP` , state whether its shrunken log2 fold change is greater than or equal to -0.009.
OUTPUT: n

INPUT: Textbook exercise: given the entry `RRIRQRPPRLPRPRPRPKVQPRP` , state whether its shrunken log2 fold change is greater than or equal to -0.009.
OUTPUT: y

---

tested on: Escherichia coli TOP10; experiment: shrunken log2 fold change of peptide-encoding DNA abundance (4.5 h post-induction vs induction); higher = less antimicrobial activity (less host growth inhibition); conditions: time post-induction: 4.5 h; library: site-saturation at positions 5, 18, 19, 20
endpoint_label: shrunken log2 fold change
Please respond with just the number, no unit label.

INPUT: Any idea what shrunken log2 fold change was measured for `RRIRRRPPRLPRPRPRPEYKPRP` ?
OUTPUT: -0.0169

INPUT: Any idea what shrunken log2 fold change was measured for `RRIRERPPRLPRPRPRPPQCPRP` ?
OUTPUT: -0.302

INPUT: Any idea what shrunken log2 fold change was measured for `RRIRHRPPRLPRPRPRPSDPPRP` ?
OUTPUT: -0.0545

INPUT: Any idea what shrunken log2 fold change was measured for `RRIRGRPPRLPRPRPRPNYGPRP` ?
OUTPUT: 0.07

INPUT: Any idea what shrunken log2 fold change was measured for `RRIRWRPPRLPRPRPRPYCNPRP` ?
OUTPUT: -0.455

INPUT: Any idea what shrunken log2 fold change was measured for `RRIRHRPPRLPRPRPRPHFFPRP` ?
OUTPUT: -0.0737

INPUT: Any idea what shrunken log2 fold change was measured for `RRIRERPPRLPRPRPRPNHEPRP` ?
OUTPUT: 0.0522

INPUT: Any idea what shrunken log2 fold change was measured for `RRIRLRPPRLPRPRPRPIMLPRP` ?
OUTPUT: -1.12

INPUT: Any idea what shrunken log2 fold change was measured for `RRIRWRPPRLPRPRPRPPQRPRP` ?
OUTPUT: 0.548

INPUT: Any idea what shrunken log2 fold change was measured for `RRIRIRPPRLPRPRPRPLFIPRP` ?
OUTPUT: -0.525

INPUT: Any idea what shrunken log2 fold change was measured for `RRIRYRPPRLPRPRPRPAICPRP` ?
OUTPUT: 0.0426

INPUT: Any idea what shrunken log2 fold change was measured for `RRIRRRPPRLPRPRPRPFMCPRP` ?
OUTPUT: 0.0373

INPUT: Any idea what shrunken log2 fold change was measured for `RRIRMRPPRLPRPRPRPTTIPRP` ?
OUTPUT: -0.198

INPUT: Any idea what shrunken log2 fold change was measured for `RRIRLRPPRLPRPRPRPSQWPRP` ?
OUTPUT: 0.0987

INPUT: Any idea what shrunken log2 fold change was measured for `RRIRERPPRLPRPRPRPCCSPRP` ?
OUTPUT: -0.52

---

system: Escherichia coli TOP10; assay: shrunken log2 fold change of peptide-encoding DNA abundance (4.5 h post-induction vs induction); higher = less antimicrobial activity (less host growth inhibition); details: time post-induction: 4.5 h; library: site-saturation at positions 5, 18, 19, 20;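 note: peptides expressed intracellularly from a pBAD plasmid library in pooled LB shake-flask culture, induced with 0.3% L-arabinose, DNA abundance read by NGS, three biological replicates, DESeq2 with apeglm shrinkage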
Cut-off 0.1 on shrunken log2 fold change, inclusive. At or above means rule met; below means rule not met.

INPUT: Textbook exercise: given the entry `RRIRRRPPRLPRPRPRPLVLPRP` , state whether its shrunken log2 fold change is greater than or equal to 0.1.
OUTPUT: rule not met

INPUT: Textbook exercise: given the entry `RRIRLRPPRLPRPRPRPCYWPRP` , state whether its shrunken log2 fold change is greater than or equal to 0.1.
OUTPUT: rule not met

INPUT: Textbook exercise: given the entry `RRIRERPPRLPRPRPRPFGVPRP` , state whether its shrunken log2 fold change is greater than or equal to 0.1.
OUTPUT: rule not met

INPUT: Textbook exercise: given the entry `RRIRFRPPRLPRPRPRPHRYPRP` , state whether its shrunken log2 fold change is greater than or equal to 0.1.
OUTPUT: rule not met

INPUT: Textbook exercise: given the entry `RRIRLRPPRLPRPRPRPRGEPRP` , state whether its shrunken log2 fold change is greater than or equal to 0.1.
OUTPUT: rule met

INPUT: Textbook exercise: given the entry `RRIRPRPPRLPRPRPRPCDSPRP` , state whether its shrunken log2 fold change is greater than or equal to 0.1.
OUTPUT: rule met

INPUT: Textbook exercise: given the entry `RRIRIRPPRLPRPRPRPMLLPRP` , state whether its shrunken log2 fold change is greater than or equal to 0.1.
OUTPUT: rule not met

INPUT: Textbook exercise: given the entry `RRIRPRPPRLPRPRPRPRCEPRP` , state whether its shrunken log2 fold change is greater than or equal to 0.1.
OUTPUT: rule met

INPUT: Textbook exercise: given the entry `RRIRVRPPRLPRPRPRPQLIPRP` , state whether its shrunken log2 fold change is greater than or equal to 0.1.
OUTPUT: rule not met

INPUT: Textbook exercise: given the entry `RRIRFRPPRLPRPRPRPNTMPRP` , state whether its shrunken log2 fold change is greater than or equal to 0.1.
OUTPUT: rule not met

INPUT: Textbook exercise: given the entry `RRIRLRPPRLPRPRPRPRPIPRP` , state whether its shrunken log2 fold change is greater than or equal to 0.1.
OUTPUT: rule met

INPUT: Textbook exercise: given the entry `RRIRARPPRLPRPRPRPTPGPRP` , state whether its shrunken log2 fold change is greater than or equal to 0.1.
OUTPUT: rule met

INPUT: Textbook exercise: given the entry `RRIRNRPPRLPRPRPRPAFQPRP` , state whether its shrunken log2 fold change is greater than or equal to 0.1.
OUTPUT: rule not met

INPUT: Textbook exercise: given the entry `RRIRKRPPRLPRPRPRPKCDPRP` , state whether its shrunken log2 fold change is greater than or equal to 0.1.
OUTPUT: rule met

INPUT: Textbook exercise: given the entry `RRIRQRPPRLPRPRPRPAICPRP` , state whether its shrunken log2 fold change is greater than or equal to 0.1.
OUTPUT: rule not met

INPUT: Textbook exercise: given the entry `RRIRLRPPRLPRPRPRPMNGPRP` , state whether its shrunken log2 fold change is greater than or equal to 0.1.
OUTPUT: rule not met

INPUT: Textbook exercise: given the entry `RRIRMRPPRLPRPRPRPSVPPRP` , state whether its shrunken log2 fold change is greater than or equal to 0.1.
OUTPUT: rule not met

INPUT: Textbook exercise: given the entry `RRIRYRPPRLPRPRPRPPECPRP` , state whether its shrunken log2 fold change is greater than or equal to 0.1.
OUTPUT: rule not met

INPUT: Textbook exercise: given the entry `RRIRTRPPRLPRPRPRPAISPRP` , state whether its shrunken log2 fold change is greater than or equal to 0.1.
OUTPUT: rule not met

INPUT: Textbook exercise: given the entry `RRIRKRPPRLPRPRPRPPVPPRP` , state whether its shrunken log2 fold change is greater than or equal to 0.1.
OUTPUT: rule met

INPUT: Textbook exercise: given the entry `RRIRIRPPRLPRPRPRPNTRPRP` , state whether its shrunken log2 fold change is greater than or equal to 0.1.
OUTPUT: rule not met

INPUT: Textbook exercise: given the entry `RRIRSRPPRLPRPRPRPRWHPRP` , state whether its shrunken log2 fold change is greater than or equal to 0.1.
OUTPUT: rule met

INPUT: Textbook exercise: given the entry `RRIRLRPPRLPRPRPRPWIIPRP` , state whether its shrunken log2 fold change is greater than or equal to 0.1.
OUTPUT: rule not met

INPUT: Textbook exercise: given the entry `RRIRMRPPRLPRPRPRPDDEPRP` , state whether its shrunken log2 fold change is greater than or equal to 0.1.
OUTPUT: rule met

INPUT: Textbook exercise: given the entry `RRIRLRPPRLPRPRPRPNLWPRP` , state whether its shrunken log2 fold change is greater than or equal to 0.1.
OUTPUT: rule met

INPUT: Textbook exercise: given the entry `RRIRHRPPRLPRPRPRPPVVPRP` , state whether its shrunken log2 fold change is greater than or equal to 0.1.
OUTPUT: rule met

INPUT: Textbook exercise: given the entry `RRIRLRPPRLPRPRPRPMFGPRP` , state whether its shrunken log2 fold change is greater than or equal to 0.1.
OUTPUT: rule met

INPUT: Textbook exercise: given the entry `RRIRWRPPRLPRPRPRPYYSPRP` , state whether its shrunken log2 fold change is greater than or equal to 0.1.
OUTPUT: rule not met

INPUT: Textbook exercise: given the entry `RRIRFRPPRLPRPRPRPCWYPRP` , state whether its shrunken log2 fold change is greater than or equal to 0.1.
OUTPUT: rule not met

INPUT: Textbook exercise: given the entry `RRIRERPPRLPRPRPRPVWGPRP` , state whether its shrunken log2 fold change is greater than or equal to 0.1.
OUTPUT: rule met

INPUT: Textbook exercise: given the entry `RRIRVRPPRLPRPRPRPCVMPRP` , state whether its shrunken log2 fold change is greater than or equal to 0.1.
OUTPUT: rule not met
